# Tested on: Moraxella catarrhalis
# Assay Info: Antimicrobial activity against drug-susceptible Moraxella catarrhalis 1 after 20 hrs by agar dilution method
# Type: functional
Readout Type: MIC (µg/mL)
Field format: number, assumed µg/mL, no unit text.

Solved entries:
# Compound, Unit Label, MIC
data = [
    ("CCOC(=O)[C@H]1[C@H](C)O[C@@H](O[C@H]2[C@H](N(C)C)[C@@H](O)[C@H](O[C@H]3[C@@H](CC=O)C[C@@H](C)[C@@H](O)CN(C)CCC(CCCc4cnc5ccccc5c4)NC(=O)C[C@@H](OC(=O)CC)[C@@H]3OC)O[C@@H]2C)C[C@@]1(C)O (mixture of isomers)", "µg/mL", 2),
    ("CCOC(=O)[C@H]1[C@H](C)O[C@@H](O[C@H]2[C@H](N(C)C)[C@@H](O)[C@H](O[C@H]3[C@@H](CC=O)C[C@@H](C)[C@@H](O)CN(C)CCC(CCCc4ccnc5ccccc45)NC(=O)C[C@@H](OC(=O)CC)[C@@H]3OC)O[C@@H]2C)C[C@@]1(C)O (stereo in doubt; form 2)", "µg/mL", 8),
]

Now for another entry.
Incoming: Given the entry CCOC(=O)[C@H]1[C@H](C)O[C@@H](O[C@H]2[C@H](N(C)C)[C@@H](O)[C@H](O[C@H]3[C@@H](CC=O)C[C@@H](C)[C@@H](O)CN(C)CCC(C/C=C/c4ccnc5ccccc45)NC(=O)C[C@@H](OC(=O)CC)[C@@H]3OC)O[C@@H]2C)C[C@@]1(C)O (stereo in doubt) , report its measured MIC.
Outgoing: 8
